# protocol_description: Plasma stability assay, CD-1 mouse plasma
# Type: in vitro ADME
# test_settings: both sexes, CD-1, mouse, plasma
parameter_measured: half-life at 10 μM

Given the entry C[C@H]1COc2cccc(c2)-c2cccc(c2)C(=O)N(C)[C@H](C(N)=O)CCC(=O)N1 [Ex. 71] , report its measured half-life at 10 μM.
> 4 h

Given the entry C[C@H]1COc2cccc(c2)-c2cccc(c2)C(=O)N(C)[C@H](C(=O)NCC(=O)O)CCC(=O)N1 [Ex. 83] , report its measured half-life at 10 μM.
> 4 h

Given the entry CC(C)CNC(=O)[C@@H]1CCC(=O)N[C@@H](C)COc2cccc(c2)-c2cccc(c2)C(=O)N1C [Ex. 80] , report its measured half-life at 10 μM.
> 4 h

Given the entry C[C@H]1COc2cccc(c2)-c2cccc(c2)C(=O)N(C)[C@H](C(=O)O)CCC(=O)N1 [Ex. 69] , report its measured half-life at 10 μM.
3.33 h

---

I'd be grateful if you could share measured IC50 for these entries.
# tgt: Human recombinant ECE-1 (Homo sapiens)
# Sequence (P42892 whole entry): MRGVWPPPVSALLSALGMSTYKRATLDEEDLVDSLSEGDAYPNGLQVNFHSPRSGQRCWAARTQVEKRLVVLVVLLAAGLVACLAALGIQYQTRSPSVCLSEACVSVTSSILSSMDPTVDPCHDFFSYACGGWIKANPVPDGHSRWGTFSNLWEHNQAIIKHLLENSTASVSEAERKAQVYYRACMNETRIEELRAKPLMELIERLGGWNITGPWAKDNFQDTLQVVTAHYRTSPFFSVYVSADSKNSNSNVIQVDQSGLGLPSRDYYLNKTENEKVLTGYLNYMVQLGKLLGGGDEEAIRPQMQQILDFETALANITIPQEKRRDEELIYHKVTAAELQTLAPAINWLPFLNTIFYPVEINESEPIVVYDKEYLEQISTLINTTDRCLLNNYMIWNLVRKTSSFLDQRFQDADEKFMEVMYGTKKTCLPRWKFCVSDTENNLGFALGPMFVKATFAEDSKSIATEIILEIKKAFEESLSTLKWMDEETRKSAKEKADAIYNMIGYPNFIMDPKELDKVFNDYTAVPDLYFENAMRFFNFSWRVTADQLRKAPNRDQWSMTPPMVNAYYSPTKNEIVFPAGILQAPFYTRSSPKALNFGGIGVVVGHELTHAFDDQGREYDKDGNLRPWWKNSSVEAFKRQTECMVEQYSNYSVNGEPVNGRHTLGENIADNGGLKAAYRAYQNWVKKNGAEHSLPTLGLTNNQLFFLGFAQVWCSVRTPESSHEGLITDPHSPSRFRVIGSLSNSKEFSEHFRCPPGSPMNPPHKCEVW
# protocol_description: Endothelin converting enzyme-1 (ECE-1) enzyme assay
Provide only the numeric value, understood in µM.

Given the entry CN1CCC[C@H](NC(=O)Cc2ccccc2)C(=O)N2C[C@@H](NC(=O)Cc3ccc4ccccc4c3)C[C@H]2COc2ccccc2-c2cccc(c2)C1=O , report its measured IC50.
4.28

Given the entry CN1CCC[C@H](NC(=O)c2ccccc2)C(=O)N2C[C@@H](NC(=O)Cc3ccc4ccccc4c3)C[C@H]2COc2ccccc2-c2cccc(c2)C1=O , report its measured IC50.
4.07

Given the entry CN1CCC[C@H](NC(=O)OCc2ccccc2)C(=O)N2C[C@@H](NC(=O)Cc3ccc4ccccc4c3)C[C@H]2COc2ccccc2-c2cccc(c2)C1=O , report its measured IC50.
3.01

---

# tgt: human leukotriene B4 receptor (LTB4R) (Homo sapiens, UniProt Q15722)
# Construct: host or cells: CHO mito-i-Photina cells
# Sequence (Q15722 whole entry): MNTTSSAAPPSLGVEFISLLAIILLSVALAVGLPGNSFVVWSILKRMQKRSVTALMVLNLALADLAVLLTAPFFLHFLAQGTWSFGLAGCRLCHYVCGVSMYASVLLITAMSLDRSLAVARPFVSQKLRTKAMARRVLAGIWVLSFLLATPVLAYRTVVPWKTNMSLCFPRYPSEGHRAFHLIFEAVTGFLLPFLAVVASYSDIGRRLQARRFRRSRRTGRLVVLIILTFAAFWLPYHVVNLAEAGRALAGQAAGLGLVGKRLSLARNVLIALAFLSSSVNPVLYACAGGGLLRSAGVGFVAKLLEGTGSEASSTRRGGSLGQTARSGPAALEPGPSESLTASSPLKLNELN
# protocol_description: Human LTB4 receptor cell-based assay (CHO mito-i-Photina, flash luminescence)
# test_settings: antagonist mode, 10 μM
I'd be grateful if you could share measured inhibition at 10 µM for these entries.
Provide only the numeric value, understood in %.

Kindly state the measured inhibition at 10 µM obtained for O=C(N[C@@H]1CCNC(=O)c2ccccc2-c2cccc(c2)OC[C@@H]2C[C@H](NC(=O)Oc3ccccc3)CN2C1=O)OCc1ccccc1 with human leukotriene B4 receptor (LTB4R) (Homo sapiens, UniProt Q15722).
46

Kindly state the measured inhibition at 10 µM obtained for COc1ccc2c(c1)-c1cccc(c1)C(=O)N(C)[C@H](C(=O)NCc1cccnc1)CCC(=O)N[C@H](C)CO2 with human leukotriene B4 receptor (LTB4R) (Homo sapiens, UniProt Q15722).
100

Kindly state the measured inhibition at 10 µM obtained for C[C@@H]1COc2cccc(c2)-c2ccccc2SCCCC[C@H](NC(=O)CN2CCCC2)C(=O)N1 with human leukotriene B4 receptor (LTB4R) (Homo sapiens, UniProt Q15722).
47

Kindly state the measured inhibition at 10 µM obtained for C[C@@H]1COc2ccccc2-c2cncc(c2)SCCCC[C@H](N)C(=O)N1 with human leukotriene B4 receptor (LTB4R) (Homo sapiens, UniProt Q15722).
41

Kindly state the measured inhibition at 10 µM obtained for C[C@@H]1COc2cccc(c2)-c2ccccc2SCCCC[C@H](N)C(=O)N1 with human leukotriene B4 receptor (LTB4R) (Homo sapiens, UniProt Q15722).
49

---

I'd be grateful if you could share measured IC50 for these entries.

Kindly state the measured IC50 obtained for O=C(N[C@@H]1CCNC(=O)c2ccccc2-c2cccc(c2)OC[C@@H]2C[C@H](NC(=O)Oc3ccccc3)CN2C1=O)OCc1ccccc1 with human leukotriene B4 receptor (LTB4R) (Homo sapiens).
39.4 µM

Kindly state the measured IC50 obtained for C[C@@H]1COc2cccc(c2)-c2ccccc2SCCCC[C@H](N)C(=O)N1 with human leukotriene B4 receptor (LTB4R) (Homo sapiens).
15.4 µM

Kindly state the measured IC50 obtained for C[C@@H]1COc2ccccc2-c2cncc(c2)SCCCC[C@H](N)C(=O)N1 with human leukotriene B4 receptor (LTB4R) (Homo sapiens).
40.9 µM

Kindly state the measured IC50 obtained for COc1ccc2c(c1)-c1cccc(c1)C(=O)N(C)[C@H](C(=O)NCc1cccnc1)CCC(=O)N[C@H](C)CO2 with human leukotriene B4 receptor (LTB4R) (Homo sapiens).
1.97 µM

---

I'd be grateful if you could share measured half-life at 10 μM for these entries.
# protocol_description: Metabolic stability assay, CD-1 mouse microsomes
# Type: in vitro ADME
# test_settings: both sexes; CD-1 mouse microsomes, 10 μM, 1 mg/ml protein, 37° C.; read-out: Metabolic Stability T ½ [min] mouse/(rat)

Given the entry C[C@H]1COc2cccc(c2)-c2cccc(c2)C(=O)N(C)[C@H](C(=O)NCC(=O)O)CCC(=O)N1 , report its measured half-life at 10 μM.
> 60 min

Given the entry COc1ccc2c(c1)-c1cccc(c1)C(=O)N(C)[C@H](C(=O)NCC(C)C)CCC(=O)N[C@H](C)CO2 , report its measured half-life at 10 μM.
> 60 min

Given the entry C[C@H]1COc2cccc(c2)-c2cccc(c2)C(=O)N(C)[C@H](C(=O)NCCN(C)C)CCC(=O)N1 , report its measured half-life at 10 μM.
> 60 min

Given the entry COCCNC(=O)[C@@H]1CCC(=O)N[C@@H](C)COc2cccc(c2)-c2cccc(c2)C(=O)N1C , report its measured half-life at 10 μM.
> 60 min

Given the entry C[C@H]1COc2cccc(c2)-c2cccc(c2)C(=O)N(C)[C@H](C(=O)NCCCN2CCCC2)CCC(=O)N1 , report its measured half-life at 10 μM.
> 60 min

Given the entry COc1ccc2c(c1)-c1cccc(c1)C(=O)N(C)[C@H](C(=O)N1CCCC1)CCC(=O)N[C@H](C)CO2 , report its measured half-life at 10 μM.
> 60 min

Given the entry C[C@H]1COc2cccc(c2)-c2cccc(c2)C(=O)N(C)[C@H](C(=O)NCc2cccc3ccccc23)CCC(=O)N1 , report its measured half-life at 10 μM.
3 min

---

# protocol_description: Metabolic stability assay, CD-1 mouse microsomes
# Assay type: in vitro ADME
# test_settings: CD-1 mouse microsomes, 60 min, 10 μM, 37° C.
Lab note: cut-off is 70 % remain.. Strictly less in Metabolic Stability 60 min mouse/(rat) [% remain.] is yes (1). Exactly 70 % remain. or more is no (0).

Field: below-cutoff. Rule: recorded Metabolic Stability 60 min mouse/(rat) [% remain.] strictly less than 70 % remain.. Subject: C[C@H]1COc2cccc(c2)-c2cccc(c2)C(=O)N(C)[C@H](C(=O)NCc2ccc3ccccc3c2)CCC(=O)N1
yes (1)

Field: below-cutoff. Rule: recorded Metabolic Stability 60 min mouse/(rat) [% remain.] strictly less than 70 % remain.. Subject: COc1ccc2c(c1)-c1cccc(c1)C(=O)N(C)[C@H](C(=O)NCCO)CCC(=O)N[C@H](C)CO2
no (0)

Field: below-cutoff. Rule: recorded Metabolic Stability 60 min mouse/(rat) [% remain.] strictly less than 70 % remain.. Subject: C[C@H]1COc2cccc(c2)-c2cccc(c2)C(=O)N(C)[C@H](C(=O)NCc2cn(C)cn2)CCC(=O)N1
yes (1)

Field: below-cutoff. Rule: recorded Metabolic Stability 60 min mouse/(rat) [% remain.] strictly less than 70 % remain.. Subject: COc1ccc2c(c1)-c1cccc(c1)C(=O)N(C)[C@H](C(=O)NCc1cccnc1)CCC(=O)N[C@H](C)CO2
yes (1)

Field: below-cutoff. Rule: recorded Metabolic Stability 60 min mouse/(rat) [% remain.] strictly less than 70 % remain.. Subject: COc1ccc2c(c1)-c1cccc(c1)C(=O)N(C)[C@H](C(N)=O)CCC(=O)N[C@H](C)CO2
no (0)

Field: below-cutoff. Rule: recorded Metabolic Stability 60 min mouse/(rat) [% remain.] strictly less than 70 % remain.. Subject: C[C@H]1COc2cccc(c2)-c2cccc(c2)C(=O)N(C)[C@H](C(=O)NCC(F)(F)F)CCC(=O)N1
no (0)

Field: below-cutoff. Rule: recorded Metabolic Stability 60 min mouse/(rat) [% remain.] strictly less than 70 % remain.. Subject: C[C@H]1COc2cccc(c2)-c2cccc(c2)C(=O)N(C)[C@H](C(N)=O)CCC(=O)N1
no (0)

Field: below-cutoff. Rule: recorded Metabolic Stability 60 min mouse/(rat) [% remain.] strictly less than 70 % remain.. Subject: COc1ccc2c(c1)-c1cccc(c1)C(=O)N(C)[C@H](C(=O)O)CCC(=O)N[C@H](C)CO2
no (0)

Field: below-cutoff. Rule: recorded Metabolic Stability 60 min mouse/(rat) [% remain.] strictly less than 70 % remain.. Subject: CNC(=O)[C@@H]1CCC(=O)N[C@@H](C)COc2cccc(c2)-c2cccc(c2)C(=O)N1C
no (0)

Field: below-cutoff. Rule: recorded Metabolic Stability 60 min mouse/(rat) [% remain.] strictly less than 70 % remain.. Subject: CC(C)CNC(=O)[C@@H]1CCC(=O)N[C@@H](C)COc2cccc(c2)-c2cccc(c2)C(=O)N1C
yes (1)

Field: below-cutoff. Rule: recorded Metabolic Stability 60 min mouse/(rat) [% remain.] strictly less than 70 % remain.. Subject: C[C@H]1COc2cccc(c2)-c2cccc(c2)C(=O)N(C)[C@H](C(=O)NCC(=O)O)CCC(=O)N1
no (0)

Field: below-cutoff. Rule: recorded Metabolic Stability 60 min mouse/(rat) [% remain.] strictly less than 70 % remain.. Subject: C[C@H]1COc2cccc(c2)-c2cccc(c2)C(=O)N(C)[C@H](C(=O)Nc2ccccc2)CCC(=O)N1
yes (1)

Field: below-cutoff. Rule: recorded Metabolic Stability 60 min mouse/(rat) [% remain.] strictly less than 70 % remain.. Subject: C[C@H]1COc2cccc(c2)-c2cccc(c2)C(=O)N(C)[C@H](C(=O)NCc2cccc3ccccc23)CCC(=O)N1
yes (1)

Field: below-cutoff. Rule: recorded Metabolic Stability 60 min mouse/(rat) [% remain.] strictly less than 70 % remain.. Subject: C[C@H]1COc2cccc(c2)-c2cccc(c2)C(=O)N(C)[C@H](C(=O)NC2CC2)CCC(=O)N1
no (0)

Field: below-cutoff. Rule: recorded Metabolic Stability 60 min mouse/(rat) [% remain.] strictly less than 70 % remain.. Subject: CNC(=O)[C@@H]1CCC(=O)N[C@H](C)COc2ccc(OC)cc2-c2cccc(c2)C(=O)N1C
no (0)

Field: below-cutoff. Rule: recorded Metabolic Stability 60 min mouse/(rat) [% remain.] strictly less than 70 % remain.. Subject: COc1ccc2c(c1)-c1cccc(c1)C(=O)N(C)[C@H](C(=O)NCC(=O)O)CCC(=O)N[C@H](C)CO2
no (0)

Field: below-cutoff. Rule: recorded Metabolic Stability 60 min mouse/(rat) [% remain.] strictly less than 70 % remain.. Subject: COc1ccc2c(c1)-c1cccc(c1)C(=O)N(C)[C@H](C(=O)NC1CC1)CCC(=O)N[C@H](C)CO2
no (0)

Field: below-cutoff. Rule: recorded Metabolic Stability 60 min mouse/(rat) [% remain.] strictly less than 70 % remain.. Subject: COc1ccc2c(c1)-c1cccc(c1)C(=O)N(C)[C@H](C(=O)Nc1ccccc1)CCC(=O)N[C@H](C)CO2
no (0)

Field: below-cutoff. Rule: recorded Metabolic Stability 60 min mouse/(rat) [% remain.] strictly less than 70 % remain.. Subject: COc1ccc2c(c1)-c1cccc(c1)C(=O)N(C)[C@H](C(=O)NCCN(C)C)CCC(=O)N[C@H](C)CO2
no (0)

Field: below-cutoff. Rule: recorded Metabolic Stability 60 min mouse/(rat) [% remain.] strictly less than 70 % remain.. Subject: COc1ccc2c(c1)-c1cccc(c1)C(=O)N(C)[C@H](C(=O)NCC(C)C)CCC(=O)N[C@H](C)CO2
no (0)

Field: below-cutoff. Rule: recorded Metabolic Stability 60 min mouse/(rat) [% remain.] strictly less than 70 % remain.. Subject: C[C@H]1COc2cccc(c2)-c2cccc(c2)C(=O)N(C)[C@H](C(=O)N2CCOCC2)CCC(=O)N1
yes (1)

Field: below-cutoff. Rule: recorded Metabolic Stability 60 min mouse/(rat) [% remain.] strictly less than 70 % remain.. Subject: COCCNC(=O)[C@@H]1CCC(=O)N[C@@H](C)COc2cccc(c2)-c2cccc(c2)C(=O)N1C
no (0)

Field: below-cutoff. Rule: recorded Metabolic Stability 60 min mouse/(rat) [% remain.] strictly less than 70 % remain.. Subject: C[C@H]1COc2cccc(c2)-c2cccc(c2)C(=O)N(C)[C@H](C(=O)NCCCN2CCCC2)CCC(=O)N1
no (0)

Field: below-cutoff. Rule: recorded Metabolic Stability 60 min mouse/(rat) [% remain.] strictly less than 70 % remain.. Subject: C[C@H]1COc2cccc(c2)-c2cccc(c2)C(=O)N(C)[C@H](C(=O)NCCc2ccccc2)CCC(=O)N1
yes (1)

Field: below-cutoff. Rule: recorded Metabolic Stability 60 min mouse/(rat) [% remain.] strictly less than 70 % remain.. Subject: C[C@H](NC(=O)[C@@H]1CCC(=O)N[C@@H](C)COc2cccc(c2)-c2cccc(c2)C(=O)N1C)c1ccccc1
yes (1)
